# AUC per entry
- METHOD: Single dose crossover pharmacokinetic study in dogs
- Assay type: in vivo
- SETUP CONDITIONS: male, dog, plasma, po, Animal 1002; male dog; single oral (gavage) dose, d3-etoricoxib 2.00 mg/kg, etoricoxib 1.98 mg/kg; plasma; read-out: AUC0.5-24 h
MEASURE NAME: AUC

1) [2H]C([2H])([2H])c1ccc(-c2ncc(Cl)cc2-c2ccc(S(C)(=O)=O)cc2)cn1 [d3-etoricoxib]	1020 ng·h/mL
2) Cc1ccc(-c2ncc(Cl)cc2-c2ccc(S(C)(=O)=O)cc2)cn1 [etoricoxib]	606 ng·h/mL

###

# Cmax per entry
- METHOD: Single dose crossover pharmacokinetic study in dogs
- Type: in vivo
- SETUP CONDITIONS: male, dog, plasma, po, Animal 1002; male dog; single oral (gavage) dose, d3-etoricoxib 2.00 mg/kg, etoricoxib 1.98 mg/kg; plasma; read-out: Cmax
MEASURE NAME: Cmax (ng/mL)

1. Cc1ccc(-c2ncc(Cl)cc2-c2ccc(S(C)(=O)=O)cc2)cn1	426
2. [2H]C([2H])([2H])c1ccc(-c2ncc(Cl)cc2-c2ccc(S(C)(=O)=O)cc2)cn1	791

###

- METHOD: Single dose crossover pharmacokinetic study in dogs
- Assay type: in vivo
- SETUP CONDITIONS: male, dog, plasma, po, Animal 1003; male dog; single oral (gavage) dose, d3-etoricoxib 2.00 mg/kg, etoricoxib 1.98 mg/kg; plasma; read-out: Cmax
# Cmax per entry
MEASURE NAME: Cmax (ng/mL)

1) Cc1ccc(-c2ncc(Cl)cc2-c2ccc(S(C)(=O)=O)cc2)cn1 [etoricoxib]	670
2) [2H]C([2H])([2H])c1ccc(-c2ncc(Cl)cc2-c2ccc(S(C)(=O)=O)cc2)cn1 [d3-etoricoxib]	593

###

- METHOD: Single dose crossover pharmacokinetic study in dogs
- Format: in vivo
- SETUP CONDITIONS: male, dog, plasma, po, Animal 1001; male dog; single oral (gavage) dose, d3-etoricoxib 2.00 mg/kg, etoricoxib 1.98 mg/kg; plasma; read-out: AUC0.5-24 h
MEASURE NAME: AUC (ng·h/mL)

1. [2H]C([2H])([2H])c1ccc(-c2ncc(Cl)cc2-c2ccc(S(C)(=O)=O)cc2)cn1	516
2. Cc1ccc(-c2ncc(Cl)cc2-c2ccc(S(C)(=O)=O)cc2)cn1	342

###

- METHOD: Single dose crossover pharmacokinetic study in dogs
- Format: in vivo
- SETUP CONDITIONS: male, dog, plasma, po, Mean (SD) of four male dogs; single oral (gavage) dose, d3-etoricoxib 2.00 mg/kg, etoricoxib 1.98 mg/kg; plasma; read-out: AUC0.5-24 h, Mean (SD)
# AUC per entry
MEASURE NAME: AUC (ng·h/mL)

1) [2H]C([2H])([2H])c1ccc(-c2ncc(Cl)cc2-c2ccc(S(C)(=O)=O)cc2)cn1	865
2) Cc1ccc(-c2ncc(Cl)cc2-c2ccc(S(C)(=O)=O)cc2)cn1	582
